Parameter GI50: see the listing below.
- Test system: NCI-H226
- assay.procedure: NCI tumour cell line growth inhibition, 48 h
The source made the active and inactive calls. Cut-off read from the data, not from the text of the source: active = GI50 up to about 1.1 µM and inactive = higher.

Some solved entries appear below for comparison.
O=C(/C=C/c1ccc(Cl)cc1)c1nc2ccccc2[nH]1 : 27.5 µM (inactive)
Cc1ccc(NC(=O)C2C(=O)N(c3ccc(C)c(C)c3)C(=O)/C2=N/O)cc1C (stereo unspecified) : > 100 µM (inactive)

query: For NCI-H226, provide GI50 of O=C(NCc1ccc(Cl)cc1)c1cc2sccc2nc1C(F)(F)F please.
result: 19.6 µM (inactive)

query: Further, for CCOP(=O)(/C=C\n1cnc2c(=O)n(C(C)=O)c(N)nc21)OCC ?
result: > 100 µM (inactive)

query: Further, for Cc1ccccc1NC(=O)O/N=C(\Cl)C(C)C ?
result: 16 µM (inactive)

query: Further, for Clc1ccccc1-c1nnc2c(-c3ccccc3)nc3ccccc3n12 ?
result: > 100 µM (inactive)

These entries and their values trace back to ChEMBL document CHEMBL1201862.
